Assay: clinical
Format: in vivo, human
Settings: female, human, in vivo, 2.33 mg/m2, T1/2
Recorded endpoint: half-life
Form entry: enter the amount, then its unit.

Exercise: Value lookup for half-life; key = CN1CCN(C(=O)C2C(C(=O)O)[C@H]3CC[C@@H]2O3)CC1 (stereo partly shown)
Solution: 1.35 h
